value_type: melting point

>>> observed_result("C[S+]([O-])c1ccc(-c2nn(Cc3ccc(F)cc3F)c(=O)cc2-c2ccc(Cl)cc2)cc1 (stereo not shown)")
"155.6 to 155.7 °C"
>>> observed_result("CS(=O)(=O)c1ccc(-c2nn(Cc3ccccc3)c(=S)cc2-c2ccc(F)cc2)cc1")
"181.8 to 182 °C"
>>> observed_result("CSc1ccc(-c2nn(Cc3ccccc3)c(=S)cc2-c2ccc(F)cc2)cc1")
"108.1 to 108.2 °C"
>>> observed_result("C[S+]([O-])c1ccc(-c2nn(Cc3ccccc3)c(=O)cc2-c2ccc(Cl)cc2)cc1 (stereo not shown)")
"143.7 to 144.7 °C"

---

This section presents compounds with their documented melting point values.
value_type: melting point

>>> observed_result("COc1ccc(-c2cc(=O)n(CC=Cc3ccc(Cl)cc3)nc2-c2ccc(OC)c(F)c2)cc1F")
"72.5 to 74.9 °C"
>>> observed_result("COc1ccc(-c2nn(Cc3ccncc3)c(=O)cc2-c2ccc(Cl)cc2)cc1")
"142 to 143 °C"
>>> observed_result("CSc1ccc(-c2nn(Cc3ccc(Cl)cc3Cl)c(=O)cc2-c2ccc(F)cc2)cc1")
"139.3 to 139.5 °C"
>>> observed_result("CSc1ccc(-c2nn(Cc3ccc(F)cc3F)c(=O)cc2-c2ccc(Cl)cc2)cc1")
"157.4 to 157.5 °C"
>>> observed_result("CS(=O)(=O)c1ccc(-c2nn(Cc3cccnc3)c(=O)cc2-c2ccc(Cl)cc2)cc1")
"248 to 248.1 °C"
>>> observed_result("COc1ccc(-c2cc(=O)n(Cc3cccnc3)nc2-c2ccc(OC)cc2)cc1")
"167.4 to 168.4 °C"
>>> observed_result("COC(=O)c1ccc(Cn2nc(-c3ccc(OC)cc3)c(-c3ccc(OC)cc3)cc2=O)cc1")
"185.5 to 186.6 °C"
>>> observed_result("CSc1ccc(-c2nn(Cc3ccc(Cl)cc3Cl)c(=S)cc2-c2ccc(Cl)cc2)cc1")
"183.2 to 183.4 °C"

---

Let's look at some compounds and their measured melting point.
value_type: melting point

>>> observed_result("COc1ccc(-c2cc(=O)n(Cc3ccccc3)nc2-c2ccc(OC)c(F)c2)cc1F [Example 158]")
"114.1 to 115.2 °C"
>>> observed_result("CS(=O)(=O)c1ccc(-c2nn(Cc3ccc(F)cc3F)c(=O)cc2-c2ccc(Cl)cc2)cc1 [Example 103]")
"173.8 to 173.9 °C"
>>> observed_result("CS(=O)(=O)c1ccc(-c2nn(CC3CC3)c(=O)cc2-c2ccc(F)cc2)cc1 [Example 100]")
"123.8 to 123.9 °C"
>>> observed_result("COc1ccc(-c2cc(=O)n(CC3CC3)nc2-c2ccc(OC)c(F)c2)cc1 [Example 148]")
"132.2 to 132.6 °C"
>>> observed_result("COc1ccc(-c2cc(=O)n(Cc3ccncc3)nc2-c2ccc(OC)cc2)cc1 [Example 45]")
"182.1 to 183.1 °C"
>>> observed_result("COc1ccc(-c2cc(=O)n(CCCOc3ccccc3)nc2-c2ccc(OC)cc2)cc1 [Example 20]")
"110 to 111 °C"
>>> observed_result("CCn1nc(-c2ccc(OC)c(F)c2)c(-c2ccc(OC)c(F)c2)cc1=O [Example 160]")
"177.8 to 178.5 °C"
>>> observed_result("COc1ccc(-c2nn(CC=Cc3ccc(Cl)cc3)c(=O)cc2-c2ccc(OC)c(F)c2)cc1 [Example 152]")
"109.2 to 111 °C"
>>> observed_result("COc1ccc(-c2cc(=O)n(CC=Cc3ccc(Cl)cc3)nc2-c2ccc(OC)c(F)c2)cc1 [Example 145]")
"144 to 145.4 °C"
>>> observed_result("CS(=O)(=O)c1ccc(-c2nn(CCCc3ccccc3)c(=O)cc2-c2ccc(Cl)cc2)cc1 [Example 108]")
"70.2 to 71.6 °C"
>>> observed_result("COc1ccc(Cn2nc(-c3ccc(SC)cc3)c(-c3ccc(F)cc3)cc2=O)cc1 [Example 62]")
"165.3 to 165.7 °C"
>>> observed_result("CS(=O)(=O)c1ccc(-c2nn(Cc3ccc(Cl)cc3Cl)c(=O)cc2-c2ccc(Cl)cc2)cc1 [Example 104]")
"232.7 to 234.5 °C"
>>> observed_result("CSc1ccc(-c2nn(Cc3cccnc3)c(=O)cc2-c2ccc(F)cc2)cc1 [Example 67]")
"159.8 to 160.7 °C"
>>> observed_result("COc1ccc(-c2nn(Cc3ccccc3)c(=O)cc2-c2ccc(Cl)cc2)cc1 [Example 49]")
"165 to 167 °C"
>>> observed_result("COc1ccc(-c2cc(=O)n(Cc3ccc(Cl)cc3)nc2-c2ccc(OC)cc2)cc1 [Example 33]")
"124.2 to 127.3 °C"
>>> observed_result("CS(=O)(=O)c1ccc(-c2nn(CC3CC3)c(=O)cc2-c2ccc(Cl)cc2)cc1 [Example 99]")
"139.7 to 139.8 °C"
>>> observed_result("CSc1ccc(-c2nn(CC=Cc3ccccc3)c(=O)cc2-c2ccc(Cl)cc2)cc1 [Example 56]")
"109.3 to 110.2 °C"
>>> observed_result("COc1ccc(-c2cc(=O)n(C3CCCC3)nc2-c2ccc(OC)cc2)cc1 [Example 171]")
"141.2 to 142.2 °C"
>>> observed_result("COc1ccc(-c2cc(=O)n(Cc3ccc(C(=O)O)cc3)nc2-c2ccc(OC)cc2)cc1 [Example 112]")
"241 to 242 °C"
>>> observed_result("COc1ccc(-c2cc(=O)n(CC(C)C)nc2-c2ccc(OC)c(F)c2)cc1F [Example 161]")
"154 to 154.5 °C"
>>> observed_result("COc1ccc(-c2nn(Cc3ccccc3)c(=O)cc2-c2ccc(OC)c(F)c2)cc1 [Example 151]")
"109.6 to 111.6 °C"
>>> observed_result("COc1ccc(C2=NNC(=O)CC2c2ccc(OC)c(F)c2)cc1F (stereo not shown) [Example 156]")
"195.7 to 197.7 °C"
>>> observed_result("CS(=O)(=O)c1ccc(-c2nn(Cc3ccccc3)c(=O)cc2-c2ccccc2)cc1 [Example 109]")
"211 to 212 °C"
>>> observed_result("CCn1nc(-c2ccc(OC)c(F)c2)c(-c2ccc(OC)cc2)cc1=O [Example 146]")
"122.6 to 123.5 °C"
>>> observed_result("CSc1ccc(Cn2nc(-c3ccc(SC)cc3)c(-c3ccc(F)cc3)cc2=O)cc1 [Example 63]")
"116 to 116.1 °C"
>>> observed_result("CSc1ccc(-c2n[nH]c(=O)cc2-c2ccc(F)cc2)cc1 [Example 9]")
"197.4 to 198.2 °C"
>>> observed_result("C[S+]([O-])c1ccc(-c2nn(Cc3ccc(Cl)cc3Cl)c(=O)cc2-c2ccc(Cl)cc2)cc1 (stereo not shown) [Example 92]")
"236.5 to 237.3 °C"
>>> observed_result("COc1ccc(-c2nn(CC3CC3)c(=O)cc2-c2ccc(OC)c(F)c2)cc1 [Example 155]")
"135.2 to 135.7 °C"
>>> observed_result("CSc1ccc(-c2nn(Cc3ccccc3)c(=O)cc2-c2ccccc2)cc1 [Example 71]")
"157.3 to 158.4 °C"
>>> observed_result("CSc1ccc(-c2nn(Cc3ccc(Cl)cc3Cl)c(=S)cc2-c2ccc(F)cc2)cc1 [Example 141]")
"154 to 154.2 °C"
>>> observed_result("CCn1nc(-c2ccc(OC)cc2)c(-c2ccc(OC)c(F)c2)cc1=O [Example 153]")
"161.7 to 162.2 °C"
>>> observed_result("COc1ccc(-c2n[nH]c(=O)cc2-c2ccc(OC)c(F)c2)cc1 [Example 150]")
"212.8 to 213.4 °C"
>>> observed_result("CSc1ccc(-c2n[nH]c(=S)cc2-c2ccc(F)cc2)cc1 [Example 136]")
"218.7 to 218.9 °C"
>>> observed_result("COc1ccc(Cn2nc(-c3ccc(SC)cc3)c(-c3ccc(F)cc3)cc2=S)cc1 [Example 140]")
"112.7 to 112.9 °C"

---

Each entry below lists one item and its recorded melting point value.
value_type: melting point

>>> observed_result("COc1ccc(-c2cc(=S)n(Cc3ccccc3)nc2-c2ccc(OC)cc2)cc1 [Example 123]")
"134.7 to 148.6 °C"
>>> observed_result("COc1ccc(C2=NNC(=O)CC2c2ccc(OC)c(F)c2)cc1 (centres unmarked) [Example 149]")
"171.2 to 173.4 °C"
>>> observed_result("COc1ccc(-c2cc(=O)n(CCC(=O)NCc3ccccc3)nc2-c2ccc(OC)cc2)cc1 [Example 115]")
"135 to 137 °C"
>>> observed_result("CSc1ccc(-c2nn(Cc3ccc(F)cc3F)c(=S)cc2-c2ccc(Cl)cc2)cc1 [Example 133]")
"176.5 to 176.6 °C"
>>> observed_result("COc1ccc(-c2cc(=O)n(Cc3ccccc3)nc2-c2ccc(OC)c(F)c2)cc1 [Example 144]")
"136.6 to 137.8 °C"
>>> observed_result("COc1ccc(-c2cc(=O)[nH]nc2-c2ccc(OC)c(F)c2)cc1F [Example 157]")
"204.8 to 205.7 °C"
>>> observed_result("CS(=O)(=O)c1ccc(-c2nn(Cc3ccncc3)c(=O)cc2-c2ccc(F)cc2)cc1 [Example 107]")
"253.3 to 254.5 °C"
>>> observed_result("CS(=O)(=O)c1ccc(-c2nn(Cc3ccccc3)c(=O)cc2-c2ccc(Cl)cc2)cc1 [Example 97]")
"103.2 to 105.7 °C"
